# Test system: Enterococcus faecalis
# test-protocol: Antibacterial activity against linezolid-resistant Enterococcus faecalis
# Type: functional
# reported MIC; entries follow

| molecule-smiles | operator | MIC (µg/mL) |
| --- | --- | --- |
| CC(=O)NC[C@H]1CN(c2ccc(-c3ccc(-c4nc5n(n4)CCNC5)cc3)c(F)c2)C(=O)O1 | = | 1 |
| CC(=O)NC[C@H]1CN(c2ccc(N3CCOCC3)c(F)c2)C(=O)O1 | > | 16 |
| CC(=O)NC[C@H]1CN(c2ccc(-c3ccc(-c4nnc5ccccn45)cc3)c(F)c2)C(=O)O1 | = | 1 |
| CC(=O)NC[C@H]1CN(c2ccc(-c3ccc(-c4cc5n(n4)CCN(C)C5)cc3)c(F)c2)C(=O)O1 | = | 1 |
| CC(=O)NC[C@H]1CN(c2ccc(-c3ccc(-c4cc5n(n4)CCNC5)cc3)c(F)c2)C(=O)O1 | = | 2 |
| CC(=O)NC[C@H]1CN(c2ccc(-c3ccc(-c4nc5cnccn5n4)cc3)c(F)c2)C(=O)O1 | = | 0.5 |
| CC(=O)NC[C@H]1CN(c2ccc(-c3ccc(-c4nc5ccccn5n4)cc3)c(F)c2)C(=O)O1 | = | 1 |
| CC(=O)NC[C@H]1CN(c2ccc(-c3ccc(-c4nnc5cnccn45)cc3)c(F)c2)C(=O)O1 | = | 1 |
| CC(=O)NC[C@H]1CN(c2ccc(-c3ccc(-c4nc5n(n4)CCN(C)C5)cc3)c(F)c2)C(=O)O1 | = | 2 |
| CC(=O)NC[C@H]1CN(c2ccc(-c3ccc(CNCc4cnn[nH]4)cc3)c(F)c2)C(=O)O1 | = | 0.5 |

Each recorded value in this set is attributed to ChEMBL document CHEMBL4680286.
